Source listed as patent US8314112B2.

subjectOfTest: human ALK5 (kinase domain, ALK5 T204D) (Homo sapiens, UniProt P36897, T204D)
Construct: The kinase domain of human ALK5 (amino acids 200-503)
Sequence (P36897 200-503 T204D): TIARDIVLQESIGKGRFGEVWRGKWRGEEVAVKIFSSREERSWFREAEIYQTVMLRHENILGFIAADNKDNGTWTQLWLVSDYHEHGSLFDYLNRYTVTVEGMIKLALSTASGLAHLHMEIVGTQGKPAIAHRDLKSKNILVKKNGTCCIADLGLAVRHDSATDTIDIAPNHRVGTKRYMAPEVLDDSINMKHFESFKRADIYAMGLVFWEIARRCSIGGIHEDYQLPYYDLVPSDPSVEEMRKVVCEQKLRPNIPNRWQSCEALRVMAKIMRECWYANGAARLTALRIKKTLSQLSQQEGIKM
experimentDescription: ALK5 kinase assay ([33P] phosphate incorporation into casein)
recordedConditions: casein substrate, 1 μM unlabelled ATP
measurementType: IC50 (nM)

Example entries and their recorded answers appear below.
molecule: c1ccc(-c2nc(-c3cccnc3)c3cc[nH]c3n2)nc1 [Example 1]
IC50 [nM]: 1180
--
molecule: Cc1cccc(-c2nc(-c3cncc(-c4cccc(O)c4)c3)c3cc[nH]c3n2)n1 [Example 23]
IC50 [nM]: 14
--
molecule: Cc1cccc(-c2nc(-c3cncc(-c4ccc(C(C)(C)N)cc4)c3)c3cc[nH]c3n2)n1 [Example 77]
IC50 [nM]: 9

[1] Brc1cncc(-c2nc(-c3ccccn3)nc3[nH]ccc23)c1 [Example 44]
[2] Cc1cccc(-c2cc(-c3cncc(-c4ccc(CN(C)CC(=O)O)cc4)c3)c3cc[nH]c3n2)n1 [Example 154]
[3] Cc1cccc(-c2nc(-c3cncc(-c4ccc(CO)cc4)c3)c3cc[nH]c3n2)n1 [Example 70]
[4] COc1cccc(-c2cncc(-c3nc(-c4cccc(C)n4)nc4[nH]ccc34)c2)c1 [Example 6]
Problem: rank_up(items): orders items by reported IC50 in ascending numerical order. Please list the labels in the order you were asked to rank them.
Result: 2, 3, 4, 1

[P] CC(=O)NCCCC(=O)Nc1cncc(-c2nc(-c3cccc(C)n3)nc3[nH]ccc23)c1 [Example 52]
[Q] Cc1cccc(-c2nc(-c3cncc(-c4cnn(C)c4)c3)c3cc[nH]c3n2)n1 [Example 117]
Problem: Param pair: P , Q . Output: the one whose IC50 is numerically greater. Pick one; state its label.
Result: P

[A] COc1cncc(-c2nc(-c3cccc(C)n3)nc3[nH]ccc23)c1 [Example 3]
[B] Cc1cccc(-c2cc(-c3cncc(-c4ccc(CNCCCO)cc4)c3)c3cc[nH]c3n2)n1 [Example 139]
[C] Cc1cccc(-c2nc(-c3cncc(-c4ccc5c(c4)CCNC5)c3)c3cc[nH]c3n2)n1 [Example 115]
[D] Cc1cccc(-c2nc(-c3cncc(O)c3)c3cc[nH]c3n2)n1 [Example 80]
[E] Cc1cccc(-c2nc(-c3cncc(-c4nnco4)c3)c3cc[nH]c3n2)n1 [Example 83]
Problem: Sort (5 molecules) by IC50: min first. When ranking, write the labels in the order the request describes.
Result: B, A, D, E, C

[P] CSc1cncc(-c2cc(-c3cccc(C)n3)nc3[nH]ccc23)c1 [Example 105]
[Q] Cc1cccc(-c2cc(-c3cncc(-c4cccc(C5CCCN5)c4)c3)c3cc[nH]c3n2)n1 (stereo not drawn) [Example 120]
[R] Cc1cccc(-c2nc(-c3cncc(C(=O)NCCCO)c3)c3cc[nH]c3n2)n1 [Example 26]
Problem: Arrange these molecules by their IC50, starting with the largest number. // format: requested-order list of labels
Result: R, P, Q

[P] Cc1cccc(-c2nc(-c3cncc(-c4cccc(CNCCO)c4)c3)c3cc[nH]c3n2)n1 [Example 147]
[Q] Cc1cccc(-c2cc(-c3cncc(-c4ccc(CN5CCC(F)(F)C5)cc4)c3)c3cc[nH]c3n2)n1 [Example 134]
[R] Cc1cccc(-c2nc(-c3cncc(-c4ccccc4C)c3)c3cc[nH]c3n2)n1 [Example 32]
[S] Cc1cccc(-c2nc(-c3cncc(N4CCCCC4)c3)c3cc[nH]c3n2)n1 [Example 48]
Problem: Highest IC50 first, then in falling order down to the smallest. Please list the labels according to the requested order.
Result: S, R, Q, P

[P] Cc1cccc(-c2cc(-c3cncc(-c4cccc(CN(C)CCO)c4)c3)c3cc[nH]c3n2)n1 [Example 142]
[Q] Cc1cccc(-c2cc(-c3cccnc3)c3cc[nH]c3n2)n1 [Example 46]
Problem: Of P and Q , which one carries the higher reported IC50? Response format: the label of the selected entry.
Result: Q
(Q: 264 nM, P: 10 nM)

[A] Cc1cccc(-c2cc(-c3cncc(-c4cccc(CC(=O)O)c4)c3)c3cc[nH]c3n2)n1 [Example 156]
[B] Cc1cccc(-c2cc(-c3cncc(-c4ccc(CN(C)C)cc4)c3)c3cc[nH]c3n2)n1 [Example 65]
[C] Cc1cccc(-c2nc(-c3cncc(-c4ccc(N5CCN(C(C)C)CC5)cc4)c3)c3cc[nH]c3n2)n1 [Example 15]
[D] Cc1cccc(-c2nc(-c3cncc(-c4ccccc4F)c3)c3cc[nH]c3n2)n1 [Example 24]
[E] Cc1cccc(-c2cc(-c3cncc(-c4cncc(CN(C)C)c4)c3)c3cc[nH]c3n2)n1 [Example 91]
Problem: Kindly order the items shown according to IC50, from the highest value down. Answer with the labels in sequence, matching the requested order.
Result: C, E, D, A, B

[A] Cc1cccc(-c2nc(-c3cncc(-c4ccc(CN5CC[C@@H](N(C)C)C5)cc4)c3)c3cc[nH]c3n2)n1 [Example 97]
[B] CSc1cncc(-c2nc(-c3cccc(C)n3)nc3[nH]ccc23)c1 [Example 94]
Problem: Larger number for IC50: A , or B ? Pick one; state its label.
Result: B
(B: 191 nM, A: 8 nM)
